# assayRemarks: Cytotoxicity in HepG2 cells, 4 days, Resazurin assay
# settings: human, HepG2 cells
measurementKind: CC50 at 4 days

# example entries with known answers
compound="Cc1cc(NC(=O)c2cccc(S(=O)(=O)NC(C)CN3CCN(C)CC3)c2)ccc1F (stereo not drawn) [Compound 116]" measurementkind="CC50 at 4 days" valuemeasured="> 25 µM"
compound="O=C(Nc1ccc(Cl)cc1)c1cc(S(=O)(=O)NC2CCCCC2)ccc1F [Compound 38]" measurementkind="CC50 at 4 days" valuemeasured="22.1 µM"
compound="Cc1cc(NC(=O)c2cccc(S(=O)(=O)NC3Cc4ccccc4C3)c2)ccc1F [Compound 168]" measurementkind="CC50 at 4 days" valuemeasured="11.8 µM"
compound="Cc1cc(NC(=O)c2cccc(S(=O)(=O)NC3CCC(O)C3)c2)ccc1F (stereo not drawn) [Compound 145]" measurementkind="CC50 at 4 days" valuemeasured="> 25 µM"

For every listed record, write down its CC50 at 4 days.
1. CC1(NS(=O)(=O)c2ccc(F)c(C(=O)Nc3ccc(F)c(C(F)(F)F)c3)c2Br)COC1 [Compound 212]
2. Cc1cc(NC(=O)c2cccc(S(=O)(=O)NC(C)C)c2)cc(C)c1F [Compound 186]

Response line:
> 25 µM
> 25 µM

====

Provide the recorded pEC50 for the entries that follow.
# System: HBV
# assayRemarks: Anti-HBV activity in stable transfected HepG2.2.15 cell line (HBV DNA from secreted virions, realtime PCR)
# Format: cell-based
# settings: Hepatitis B virus, HepG2.2.15, 144 h, HepG2.2.15 cells, 6 days of treatment, secreted virion HBV DNA; read-out: HepG2 2.15 EC50
Numbers only, as −log10 of the molar value.

Example entries begin here.
compound="Cc1cc(NC(=O)c2cccc(S(=O)(=O)N[C@H]3CCCC[C@@H]3O)c2)ccc1F [Compound 131]" valuemeasured=5.58
compound="N#Cc1ccc(NC(=O)c2cccc(S(=O)(=O)NC3CCCC3)c2)cc1 [Compound 80]" valuemeasured=5.08
compound="Cc1cc(NC(=O)c2cccc(S(=O)(=O)NCCC3CC3)c2)ccc1F [Compound 170]" valuemeasured=6.59
compound="CN(C1CCCC1)S(=O)(=O)c1cccc(C(=O)Nc2ccc(F)cc2)c1 [Compound 46]" valuemeasured=5.58
compound="Cc1cc(NC(=O)c2cccc(S(=O)(=O)NC3CCCN(C(=O)OC(C)(C)C)C3)c2)ccc1F (stereo not shown) [Compound 155]" valuemeasured=6.44
compound="Cc1cc(NC(=O)c2cccc(S(=O)(=O)N[C@H](C)c3ccccc3)c2)ccc1F [Compound 166]" valuemeasured=6.72

Moving on to another compound below.
Prompt line: Supply pEC50 value. Item: CC(C)NS(=O)(=O)c1cccc(C(=O)Nc2ccc(F)c(C(C)C)c2)c1 [Compound 95]
Response line: 5.85

====

# System: HepG2 cells
# assayRemarks: Cytotoxicity in HepG2 cells using CellTiter-Blue (6 days)
# settings: read-out: HepG2 6 days CC50, 6 days, CellTiter-Blue
So I've got a bunch of compounds here, and I need their CC50 values.
Give bare numbers, in µM.

structurenotation=O=C(Nc1ccccc1)c1cccc(S(=O)(=O)NC2CCCC2)c1 testsystem="HepG2 cells" unittag=µM valuemeasured=27.2
structurenotation=O=C(Nc1ccc(F)cc1)c1ccc(Cl)c(S(=O)(=O)N2CCCCCC2)c1 testsystem="HepG2 cells" unittag=µM valuemeasured=17

Prompt line: Find CC50 for `O=C(Nc1ccccc1)c1ccc(F)c(S(=O)(=O)NC2CCCCC2)c1` on HepG2 cells and write it down.
Response line: 16.4

====

# Tested on: HBV
# assayRemarks: Anti-HBV activity in stable transfected HepG2.2.15 cell line (HBV DNA from secreted virions, realtime PCR)
# Type: cell-based
# settings: Hepatitis B virus, HepG2.2.15, 144 h, HepG2.2.15 cells, 6 days of treatment, secreted virion HBV DNA; read-out: HepG2 2.15 EC50
Mark met only when EC50 stays strictly below 2 µM. Values equal to the cut-off are not met.

molecule="Cc1cc(NC(=O)c2cccc(S(=O)(=O)NC(C)CN3CCN(C)CC3)c2)ccc1F (centres unmarked)" group=met
molecule=O=C(Nc1ccc(F)cc1)c1cccc(S(=O)(=O)NC2CCC2)c1 group=met
molecule=Cc1cc(NC(=O)c2cccc(S(=O)(=O)N[C@@H](C)C(F)(F)F)c2)ccc1F group=met
molecule=CC(=O)N1CCN(S(=O)(=O)c2cccc(C(=O)Nc3ccc(F)cc3)c2)CC1 group="not met"
molecule=O=C(Nc1ccc(F)cc1)c1cccc(S(=O)(=O)NC(=O)C2CCCCC2)c1 group=met
molecule=O=C(Nc1ccc(F)cc1)c1cccc(S(=O)(=O)N2CCOCC2)c1 group="not met"
molecule=C#Cc1cc(NC(=O)c2cccc(S(=O)(=O)NC(C)C)c2)ccc1F group=met

# input for lookup
Prompt line: Below 2 µM on EC50? Entry Cc1cc(NC(=O)c2cccc(S(=O)(=O)NC(C)CCc3ccccc3)c2)ccc1F (centres unmarked)
Response line: met

====

# Test system: HBV
# assayRemarks: Anti-HBV activity in stable transfected HepG2.2.15 cell line (HBV DNA from secreted virions, realtime PCR)
# Type: cell-based
# settings: Hepatitis B virus, HepG2.2.15, 144 h, HepG2.2.15 cells, 6 days of treatment, secreted virion HBV DNA; read-out: HepG2 2.15 EC50
So basically, the class depends on measured EC50, and the ranges are lower segment: < 300 nM; middle segment: ≥ 300 nM and < 900 nM; upper segment: ≥ 900 nM

compound=Cc1cc(NC(=O)c2cccc(S(=O)(=O)N[C@@H]3CCOC3)c2)ccc1F testsystem=HBV group="middle segment"

Prompt line: # classify by EC50 band: `O=C(Nc1ccc(F)c(F)c1)c1cc(S(=O)(=O)N[C@H]2CCOC2)ccc1F`
Response line: middle segment

Prompt line: Band for the recorded EC50 of `CC(=O)N1CCC(NS(=O)(=O)c2cccc(C(=O)Nc3ccc(F)cc3)c2)CC1` ?
Response line: upper segment

Prompt line: Which class holds `O=C(Nc1ccc(F)cc1)c1cccc(S(=O)(=O)NC2CCOCC2)c1` ?
Response line: upper segment

Prompt line: Place this compound in its band: `O=C(Nc1ccc(F)cc1)c1cccc(S(=O)(=O)N2CCCC2)c1`
Response line: upper segment

Prompt line: Class (by measured EC50) for `CC(C)NS(=O)(=O)c1cccc(C(=O)Nc2ccc(F)c(F)c2)c1`
Response line: lower segment

Prompt line: Would you mind sorting `Cc1cc(NC(=O)c2cccc(S(=O)(=O)NC3(C)COC3)c2)ccc1F` into the appropriate category?
Response line: lower segment

Prompt line: Category of `Cc1c(F)ccc(NC(=O)c2cccc(S(=O)(=O)N[C@H]3CCOC3)c2)c1F` :
Response line: lower segment

Prompt line: Which category fits this record: C=CC(C)NS(=O)(=O)c1cccc(C(=O)Nc2ccc(F)c(C)c2)c1 (centres unmarked)
Response line: lower segment

Prompt line: Could you tell me which band `O=C(Nc1ccccc1)c1ccc(F)c(S(=O)(=O)NC2CCCCC2)c1` belongs to?
Response line: upper segment

Prompt line: Which bin, given its EC50, does `CN1CCN(S(=O)(=O)c2cccc(C(=O)Nc3ccc(F)cc3)c2)CC1` occupy?
Response line: upper segment

Prompt line: // return the class label for `O=C(Nc1ccc(F)cc1)c1cc(S(=O)(=O)NC2CCCC2)ccc1F`
Response line: middle segment

Prompt line: Input `Cc1cc(NC(=O)c2cc(S(=O)(=O)N[C@H]3CCOC3)ccc2C)ccc1F` ; output its category
Response line: lower segment

Prompt line: Which bin should I file `O=C(Nc1cccc(Cl)c1)c1cc(S(=O)(=O)NC2CCCCC2)ccc1F` under?
Response line: upper segment

Prompt line: Exam item: assign `O=C(Nc1cccc(F)c1)c1cccc(S(=O)(=O)NC2CCCC2)c1` to the correct category.
Response line: lower segment

Prompt line: Note: place this compound into its band. Item: `Cc1ccc(S(=O)(=O)NC2(C)COC2)c(F)c1C(=O)Nc1ccc(F)c(C#N)c1`
Response line: middle segment

Prompt line: Classify this compound: `O=C(Nc1ccc(F)cc1)c1ccc(S(=O)(=O)N2CCCCC2)o1`
Response line: upper segment

Prompt line: Hi there! Could you help me figure out the category for `Cc1cc(NC(=O)c2cccc(S(=O)(=O)NC3(C)CC3)c2)ccc1F` please?
Response line: lower segment

Prompt line: GET /class?item= `Cc1cc(NC(=O)c2cccc(S(=O)(=O)NC3CCCC3)c2)ccc1C#N`
Response line: upper segment

Prompt line: Band for the recorded EC50 of `COC(=O)N1CC(C)(NS(=O)(=O)c2cccc(C(=O)Nc3ccc(F)c(C)c3)c2)C1` ?
Response line: lower segment

Prompt line: Textbook exercise: identify the category of the compound given here, `O=C(Nc1ccc(F)cc1)c1cc(S(=O)(=O)N2CCC3(CC2)OCCO3)ccc1F` , according to its measured value.
Response line: upper segment

Prompt line: Class (by measured EC50) for `O=C(Nc1ccc(F)cc1)c1cc(S(=O)(=O)N2CCCCC2)ccc1Cl`
Response line: upper segment
